All values here come from BigSolDB 2.1.

Condition: in acetone, 303.25 K
Reported Metric: solubility (mole fraction)

[
  {
    "Compound Structure": "C=CC(=O)NC(C)(C)CC(C)=O",
    "Observed Value": 0.515
  }
]

* * *

Condition: in isopentanol, 313.65 K

[
  {
    "Compound Structure": "C=CC(=O)NC(C)(C)CC(C)=O",
    "solubility (mole fraction)": 0.7
  }
]

* * *

Condition: in isobutanol, 323.15 K

[
  {
    "Compound Structure": "C=CC(=O)NC(C)(C)CC(C)=O",
    "solubility (mole fraction)": 0.866
  }
]

* * *

Condition: in n-pentanol, 272.15 K

[
  {
    "Compound Structure": "C=CC(=O)NC(C)(C)CC(C)=O",
    "solubility (mole fraction)": 0.148
  }
]
